# Test system: 994946-033-R-J1-PDC complex spheroid viability
# assay.text: Anticancer human tumor 994946-033-R-J1-PDC patient-derived melanoma cell line growth inhibition [POLQ]
# measurement.conditions: second compound 0.0316 µM; first compound 0.01 µM; stronger effect = lower value
endpoint.name: viability, T/C

Data request: Which viability, T/C is reported for this compound? C=CCn1c(=O)c2cnc(Nc3ccc(N4CCN(C)CC4)cc3)nc2n1-c1cccc(C(C)(C)O)n1 + Cc1cccc(N(C)C(=O)C2C(O)CCN2c2nc(C)cc(C(F)(F)F)c2C#N)c1
Data returned: 95.3%

Data request: Same lookup for CC[C@@]1(O)C(=O)OCc2c1cc1n(c2=O)Cc2cc3c(CN(C)C)c(O)ccc3nc2-1 + COC1C(OC(N)=O)C(O)C(Oc2ccc3c(O)c(NC(=O)c4ccc(O)c(CC=C(C)C)c4)c(=O)oc3c2C)OC1(C)C , please.
Data returned: 77.8%

Data request: Try this compound too: COc1cccc(OCCCN)c1-c1cc(Nc2cnc(C#N)cn2)n[nH]1 + COC1C(OC(N)=O)C(O)C(Oc2ccc3c(O)c(NC(=O)c4ccc(O)c(CC=C(C)C)c4)c(=O)oc3c2C)OC1(C)C
Data returned: 69.9%

Data request: Field entry: CC[C@@]1(O)C(=O)OCc2c1cc1n(c2=O)Cc2cc3c(CN(C)C)c(O)ccc3nc2-1 + Cc1cccc(N(C)C(=O)C2C(O)CCN2c2nc(C)cc(C(F)(F)F)c2C#N)c1
Data returned: 73%

Data request: Queued: Cn1ncnc1[C@H]1c2n[nH]c(=O)c3cc(F)cc(c23)N[C@@H]1c1ccc(F)cc1 + COC1C(OC(N)=O)C(O)C(Oc2ccc3c(O)c(NC(=O)c4ccc(O)c(CC=C(C)C)c4)c(=O)oc3c2C)OC1(C)C
Data returned: 93.6%

Data request: Here is the next compound: C=CCn1c(=O)c2cnc(Nc3ccc(N4CCN(C)CC4)cc3)nc2n1-c1cccc(C(C)(C)O)n1 + Nc1ccc(C#CCN(C(=O)Cc2ncc(C(F)(F)F)cc2C(F)(F)F)c2ccc(F)cc2)nn1
Data returned: 122%

Data request: Please do the same for CC[C@@]1(O)C(=O)OCc2c1cc1n(c2=O)Cc2cc3c(CN(C)C)c(O)ccc3nc2-1 + Nc1ccc(C#CCN(C(=O)Cc2ncc(C(F)(F)F)cc2C(F)(F)F)c2ccc(F)cc2)nn1 as well.
Data returned: 79%

Data request: Item: Cn1ncnc1[C@H]1c2n[nH]c(=O)c3cc(F)cc(c23)N[C@@H]1c1ccc(F)cc1 + Nc1ccc(C#CCN(C(=O)Cc2ncc(C(F)(F)F)cc2C(F)(F)F)c2ccc(F)cc2)nn1
Data returned: 91.6%

Data request: CCc1c2c(nc3ccc(O)cc13)-c1cc3c(c(=O)n1C2)COC(=O)[C@]3(O)CC + Cc1cccc(N(C)C(=O)C2C(O)CCN2c2nc(C)cc(C(F)(F)F)c2C#N)c1 , same question.
Data returned: 10.9%

Data request: Would you mind doing Cn1ncnc1[C@H]1c2n[nH]c(=O)c3cc(F)cc(c23)N[C@@H]1c1ccc(F)cc1 + Cc1cccc(N(C)C(=O)C2C(O)CCN2c2nc(C)cc(C(F)(F)F)c2C#N)c1 as well?
Data returned: 77.2%

###

# System: 994946-033-R-J1-PDC complex spheroid viability
# assay.text: Anticancer human tumor 994946-033-R-J1-PDC cell line growth inhibition [POLQ];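 note: spheroids exposed to drugs for 7 days; 100% = DMSO vehicle treated spheroids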
# measurement.conditions: second compound 10 µM; first compound 0.00316 µM; stronger effect = lower value
endpoint.name: viability, T/C (%)
Hi! Could you send only the number? It should be in %, unit omitted.

Data request: # viability, T/C lookup, item Cn1ncnc1[C@H]1c2n[nH]c(=O)c3cc(F)cc(c23)N[C@@H]1c1ccc(F)cc1 + Nc1ccc(C#CCN(C(=O)Cc2ncc(C(F)(F)F)cc2C(F)(F)F)c2ccc(F)cc2)nn1
Data returned: 87.3

Data request: Ok, now CCc1c2c(nc3ccc(O)cc13)-c1cc3c(c(=O)n1C2)COC(=O)[C@]3(O)CC + Nc1ccc(C#CCN(C(=O)Cc2ncc(C(F)(F)F)cc2C(F)(F)F)c2ccc(F)cc2)nn1
Data returned: 28

Data request: Also Cn1ncnc1[C@H]1c2n[nH]c(=O)c3cc(F)cc(c23)N[C@@H]1c1ccc(F)cc1 + COC1C(OC(N)=O)C(O)C(Oc2ccc3c(O)c(NC(=O)c4ccc(O)c(CC=C(C)C)c4)c(=O)oc3c2C)OC1(C)C ?
Data returned: 110

Data request: Also COc1cccc(OCCCN)c1-c1cc(Nc2cnc(C#N)cn2)n[nH]1 + COC1C(OC(N)=O)C(O)C(Oc2ccc3c(O)c(NC(=O)c4ccc(O)c(CC=C(C)C)c4)c(=O)oc3c2C)OC1(C)C , if possible.
Data returned: 56.9

Data request: Next molecule: CCc1c2c(nc3ccc(O)cc13)-c1cc3c(c(=O)n1C2)COC(=O)[C@]3(O)CC + Cc1cccc(N(C)C(=O)C2C(O)CCN2c2nc(C)cc(C(F)(F)F)c2C#N)c1
Data returned: 17.9

###

Assign viability, T/C to each entry below.
# Tested on: 994946-033-R-J1-PDC complex spheroid viability
# assay.text: Anticancer human tumor 994946-033-R-J1-PDC cell line growth inhibition [POLQ];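 note: spheroids exposed to drugs for 7 days; 100% = DMSO vehicle treated spheroids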
# measurement.conditions: second compound 3.16 µM; first compound 0.00316 µM; stronger effect = lower value
Numeric answer only, unit % assumed.

Data request: # viability, T/C lookup, item COc1cccc(OCCCN)c1-c1cc(Nc2cnc(C#N)cn2)n[nH]1 + Cc1cccc(N(C)C(=O)C2C(O)CCN2c2nc(C)cc(C(F)(F)F)c2C#N)c1
Data returned: 88.9

Data request: Another molecule to look at: CCc1c2c(nc3ccc(O)cc13)-c1cc3c(c(=O)n1C2)COC(=O)[C@]3(O)CC + Nc1ccc(C#CCN(C(=O)Cc2ncc(C(F)(F)F)cc2C(F)(F)F)c2ccc(F)cc2)nn1
Data returned: 26.3

Data request: Another molecule to check: CCc1c2c(nc3ccc(O)cc13)-c1cc3c(c(=O)n1C2)COC(=O)[C@]3(O)CC + Cc1cccc(N(C)C(=O)C2C(O)CCN2c2nc(C)cc(C(F)(F)F)c2C#N)c1
Data returned: 26.8

###

Consider the following compounds; for each one, report its viability, T/C.
# Tested on: 994946-033-R-J1-PDC complex spheroid viability
# assay.text: Anticancer human tumor 994946-033-R-J1-PDC cell line growth inhibition [POLQ];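 note: spheroids exposed to drugs for 7 days; 100% = DMSO vehicle treated spheroids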
# measurement.conditions: second compound 0.0316 µM; first compound 0.316 µM; stronger effect = lower value
Report the figure in % without appending any unit label.

Data request: Can you share its viability, T/C? I mean this compound: CNCc1ccc(-c2[nH]c3cc(F)cc4c3c2CCNC4=O)cc1 + Nc1ccc(C#CCN(C(=O)Cc2ncc(C(F)(F)F)cc2C(F)(F)F)c2ccc(F)cc2)nn1
Data returned: 84

Data request: Next compound: COc1cccc(OCCCN)c1-c1cc(Nc2cnc(C#N)cn2)n[nH]1 + COC1C(OC(N)=O)C(O)C(Oc2ccc3c(O)c(NC(=O)c4ccc(O)c(CC=C(C)C)c4)c(=O)oc3c2C)OC1(C)C
Data returned: 13.1

Data request: Would you kindly repeat that for CCc1cc2c(N3CCc4c(cc(Cn5ccnc5)cc4-c4cn(C)nc4C(F)(F)F)C3=O)ccnc2c(OC)n1 + COC1C(OC(N)=O)C(O)C(Oc2ccc3c(O)c(NC(=O)c4ccc(O)c(CC=C(C)C)c4)c(=O)oc3c2C)OC1(C)C ?
Data returned: 61.1

###

# Tested on: 994946-033-R-J1-PDC complex spheroid viability
# assay.text: Anticancer human tumor 994946-033-R-J1-PDC cell line growth inhibition [POLQ]; active = viability on the fitted dose curve at most 10% of control; inactive = the rest;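 note: spheroids exposed to drugs for 7 days; 100% = DMSO vehicle treated spheroids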
# measurement.conditions: second compound 0.316 µM; first compound 0.1 µM
Hi! Could you answer with just one of these? active, inactive

Data request: Assay result, entry COc1cccc2c1C(=O)c1c(O)c3c(c(O)c1C2=O)CC(O)(C(=O)CO)CC3OC1CC(N)C(O)C(C)O1 (stereo not given) + Nc1ccc(C#CCN(C(=O)Cc2ncc(C(F)(F)F)cc2C(F)(F)F)c2ccc(F)cc2)nn1 — outcome?
Data returned: inactive

Data request: And O=C(Nc1ccc(O)c(NS(=O)(=O)c2ccc(F)cc2)c1)c1ccc(-c2ccccc2)cc1 + Cc1cccc(N(C)C(=O)C2C(O)CCN2c2nc(C)cc(C(F)(F)F)c2C#N)c1 ?
Data returned: inactive

Data request: Repeat for the following compound: COc1cccc(OCCCN)c1-c1cc(Nc2cnc(C#N)cn2)n[nH]1 + COC1C(OC(N)=O)C(O)C(Oc2ccc3c(O)c(NC(=O)c4ccc(O)c(CC=C(C)C)c4)c(=O)oc3c2C)OC1(C)C
Data returned: inactive

Data request: Likewise for COc1cccc2c1C(=O)c1c(O)c3c(c(O)c1C2=O)CC(O)(C(=O)CO)CC3OC1CC(N)C(O)C(C)O1 (stereo not given) + Cc1cccc(N(C)C(=O)C2C(O)CCN2c2nc(C)cc(C(F)(F)F)c2C#N)c1 ?
Data returned: active

Data request: Lookup CCc1cc2c(N3CCc4c(cc(Cn5ccnc5)cc4-c4cn(C)nc4C(F)(F)F)C3=O)ccnc2c(OC)n1 + COC1C(OC(N)=O)C(O)C(Oc2ccc3c(O)c(NC(=O)c4ccc(O)c(CC=C(C)C)c4)c(=O)oc3c2C)OC1(C)C
Data returned: inactive
